# maps each entry to its pIC50
- TARGET_DESC: SMYD3 (Homo sapiens (Human))
- Sequence (Q9H7B4 whole entry): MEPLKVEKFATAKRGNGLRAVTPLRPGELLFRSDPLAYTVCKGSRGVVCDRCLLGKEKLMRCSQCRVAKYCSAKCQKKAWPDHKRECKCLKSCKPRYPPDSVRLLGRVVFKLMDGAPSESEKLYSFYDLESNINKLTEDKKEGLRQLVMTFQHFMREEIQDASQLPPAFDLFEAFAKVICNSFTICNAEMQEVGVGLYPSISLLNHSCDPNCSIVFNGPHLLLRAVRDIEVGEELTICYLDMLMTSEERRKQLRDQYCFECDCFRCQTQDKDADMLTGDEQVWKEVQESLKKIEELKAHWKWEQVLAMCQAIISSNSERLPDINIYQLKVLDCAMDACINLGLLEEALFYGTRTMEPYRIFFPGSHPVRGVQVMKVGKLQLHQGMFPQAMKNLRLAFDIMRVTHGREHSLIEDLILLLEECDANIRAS
- ASSAY_PROCEDURE: SMYD3 biochemical assay (SMYD3 enzyme assay on MEKK2 protein substrate, 3H-SAM scintillation proximity assay)
- CONDITION_NOTES: Table 1A; average of n = 1 to n = 50; read-out: SMYD3 Biochem IC50
pIC50: −log10 of the molar value.

As a guide, the following entries are already answered.
INSERT INTO assay_data (compound, assay_endpoint, reported_value) VALUES
  ('Cc1c[nH]c(C(=O)N[C@H]2CC[C@H](N)CC2)n1', 'pIC50', '< 5.00'),
  ('C[C@@H]1C[C@@H](NC(=O)c2ccccc2)CCN1S(=O)(=O)CCCN (racemic)', 'pIC50', '< 5.00'),
  ('NCCC(=O)N[C@H]1CC[C@H](NC(=O)c2cc3cc(Br)ccc3nc2O)CC1', 'pIC50', '< 5.00'),
  ('N[C@H]1CC[C@H](C(=O)N[C@H]2CC[C@H](NC(=O)c3ncn[nH]3)CC2)CC1', 'pIC50', '< 4.30'),
  ('NCCC(=O)N[C@H]1CC[C@H](NC(=O)c2nnc[nH]2)CC1', 'pIC50', '< 4.30'),
  ('Cc1cc2cc(C(=O)NC(C)C3CCN(C(=O)[C@H](C)N)CC3)ccc2[nH]1 (some centres unmarked)', 'pIC50', '< 4.30'),
  ('N[C@H]1CC[C@H](NC(=O)c2cc3c(cn2)NC(=O)C3)CC1', 'pIC50', 5.46),
  ('NCCC(=O)N[C@H]1CC[C@H](NC(=O)c2nc3ccncc3s2)CC1', 'pIC50', '< 4.30'),
  ('O=C(NC1CCN(C(=O)CC2CCNCC2)CC1)c1nnc[nH]1', 'pIC50', '< 4.30'),
  ('CN(C(=O)c1ncn[nH]1)[C@H]1CC[C@H](N)CC1', 'pIC50', '< 5.00');

Supply pIC50 value. Item: `N[C@H]1CC[C@H](C(=O)N2CCC(NC(=O)c3nnc[nH]3)CC2)CC1`
< 4.30

Supply pIC50 value. Item: `Cn1cnc(C(=O)N[C@H]2CC[C@H](N)CC2)n1`
< 4.30

Supply pIC50 value. Item: CCc1cccc(C(=O)N[C@@H]2CCN(S(=O)(=O)CCCN)[C@H](C)C2)c1 (racemic)
5.10

Supply pIC50 value. Item: Cc1n[nH]c(C(=O)NC(C)C2CCN(C(=O)[C@H](C)N)CC2)n1 (some centres unmarked)
< 4.30

Supply pIC50 value. Item: `CCc1nc(C(=O)N[C@H]2CC[C@H](N)CC2)n[nH]1`
< 4.30

Supply pIC50 value. Item: C[C@H]1C[C@@H](NC(=O)c2ccccc2)CCN1C(=O)C1CCC(N)CC1 (mixture of isomers)
< 5.00

Supply pIC50 value. Item: C[C@@H]1C[C@H](NC(=O)c2ccccc2)CCN1S(=O)(=O)CCCN (stereo in doubt)
< 5.00
